system.under.test: BChE (Equus caballus)
Sequence (P81908 whole entry): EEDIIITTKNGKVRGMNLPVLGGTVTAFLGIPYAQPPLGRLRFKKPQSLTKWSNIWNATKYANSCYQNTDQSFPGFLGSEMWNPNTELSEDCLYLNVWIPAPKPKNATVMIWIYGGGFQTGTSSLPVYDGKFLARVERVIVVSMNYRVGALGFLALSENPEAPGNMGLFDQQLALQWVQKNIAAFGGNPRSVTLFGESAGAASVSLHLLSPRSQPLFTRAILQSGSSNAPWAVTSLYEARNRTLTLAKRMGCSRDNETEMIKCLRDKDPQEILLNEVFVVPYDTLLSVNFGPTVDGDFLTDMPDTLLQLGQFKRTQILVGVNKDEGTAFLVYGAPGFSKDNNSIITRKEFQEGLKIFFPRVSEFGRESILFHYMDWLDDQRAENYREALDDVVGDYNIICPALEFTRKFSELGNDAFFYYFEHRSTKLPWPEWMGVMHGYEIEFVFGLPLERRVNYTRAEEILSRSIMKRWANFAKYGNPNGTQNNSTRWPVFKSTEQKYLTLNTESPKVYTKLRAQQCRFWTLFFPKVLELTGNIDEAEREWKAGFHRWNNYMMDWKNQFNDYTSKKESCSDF
procedure.details: Kinetic study of BChE inhibition (Lineweaver-Burk, Ellman's method)
assay.setup: estimated from secondary plot of slopes versus inhibitor concentration
test.readout: Ki (nM)
// note: answer is a bare numeric in nM

Challenge: Give recorded Ki with BChE (Equus caballus) for the following molecule: O=C(Cc1cc(Br)ccc1F)NCCCCCCCNc1c2c(nc3ccccc13)CCCC2 [Compound 12j]
Response given: 9.91

---

So I've got a bunch of molecules here, and I need their IC50 values.
system.under.test: equine serum BChE (Equus caballus)
procedure.details: biochemical
assay.setup: BChE from equine serum; mean ± SD from three separate experiments; read-out: IC50 eqBChE
// note: answer is a bare numeric in µM

Challenge: Look up IC50 for this molecule: O=C(Cc1cc(Br)cc(Br)c1)NCCCCCCCNc1c2c(nc3ccccc13)CCCC2 [Compound 12h]
Response given: 0.204

Challenge: Look up IC50 for this molecule: COc1ccc(CC(=O)NCCCCCCCNc2c3c(nc4ccccc24)CCCC3)cc1Br [Compound 12c]
Response given: 0.152

Challenge: Look up IC50 for this molecule: O=C(Cc1cc(Br)ccc1F)NCCCCCCCNc1c2c(nc3ccccc13)CCCC2 [Compound 12j]
Response given: 0.064

Challenge: Look up IC50 for this molecule: COc1c(Br)cc(CC(=O)NCCCCCCCCNc2c3c(nc4ccccc24)CCCC3)cc1Br [Compound 10g]
Response given: 0.325

Challenge: Look up IC50 for this molecule: COc1c(Br)cc(CC(=O)NCCCNc2c3c(nc4ccccc24)CCCC3)cc1Br [Compound 10b]
Response given: 0.233

Challenge: Look up IC50 for this molecule: O=C(Cc1ccccc1Br)NCCCCCCCNc1c2c(nc3ccccc13)CCCC2 [Compound 12d]
Response given: 0.091

Challenge: Look up IC50 for this molecule: O=C(Cc1ccc(F)c(Br)c1)NCCCCCCCNc1c2c(nc3ccccc13)CCCC2 [Compound 12i]
Response given: 0.049

Challenge: Look up IC50 for this molecule: COc1ccc(CC(=O)NCCCCCCCNc2c3c(nc4ccccc24)CCCC3)c(Br)c1 [Compound 12a]
Response given: 0.14

---

procedure.details: in vitro
assay.setup: human
So I've got a bunch of molecules here, and I need their IC50 at 24 h values.

Challenge: Look up IC50 at 24 h for this molecule: Nc1c2c(nc3ccccc13)CCCC2 [Tacrine, reference compound]
Response given: 38.9 µM

Challenge: Look up IC50 at 24 h for this molecule: O=C(Cc1cc(Br)ccc1F)NCCCCCCCNc1c2c(nc3ccccc13)CCCC2 [Compound 12j]
Response given: > 80 µM

Challenge: Look up IC50 at 24 h for this molecule: COc1c(Br)cc(CC(=O)NCCCCC[N+](C)(C)C)cc1Br [Compound 1, Pulmonarin B]
Response given: > 80 µM

---

system.under.test: Electric eel AChE (Electrophorus electricus, UniProt O42275)
IC50 under 700 nM gets YES, anything at or over 700 nM gets NO.

Challenge: Determine whether this molecule shows IC50 lower than 700 nM (ties excluded): COc1c(Br)cc(CC(=O)NCCCCC[N+](C)(C)C)cc1Br
Response given: NO

Challenge: Determine whether this molecule shows IC50 lower than 700 nM (ties excluded): O=C(Cc1ccccc1)NCCCCCCCNc1c2c(nc3ccccc13)CCCC2 [Compound 12l]
Response given: NO

Challenge: Determine whether this molecule shows IC50 lower than 700 nM (ties excluded): O=C(Cc1cc(Cl)ccc1Br)NCCCCCCCNc1c2c(nc3ccccc13)CCCC2 [Compound 12k]
Response given: YES

Challenge: Determine whether this molecule shows IC50 lower than 700 nM (ties excluded): O=C(Cc1cc(Br)cc(Br)c1)NCCCCCCCNc1c2c(nc3ccccc13)CCCC2 [Compound 12h]
Response given: NO

Challenge: Determine whether this molecule shows IC50 lower than 700 nM (ties excluded): COc1c(Br)cc(CC(=O)NCCCNc2c3c(nc4ccccc24)CCCC3)cc1Br [Compound 10b]
Response given: NO

Challenge: Determine whether this molecule shows IC50 lower than 700 nM (ties excluded): COc1ccc(CC(=O)NCCCCCCCNc2c3c(nc4ccccc24)CCCC3)c(Br)c1 [Compound 12a]
Response given: YES

Challenge: Determine whether this molecule shows IC50 lower than 700 nM (ties excluded): COc1c(Br)cc(CC(=O)NCCCCCNc2c3c(nc4ccccc24)CCCC3)cc1Br [Compound 10d]
Response given: NO

Challenge: Determine whether this molecule shows IC50 lower than 700 nM (ties excluded): COc1c(Br)cc(CC(=O)NCCCCCCCCNc2c3c(nc4ccccc24)CCCC3)cc1Br [Compound 10g]
Response given: YES

Challenge: Determine whether this molecule shows IC50 lower than 700 nM (ties excluded): COc1c(Br)cc(CC(=O)NCCCCCCCCCCNc2c3c(nc4ccccc24)CCCC3)cc1Br [Compound 10h]
Response given: YES

Challenge: Determine whether this molecule shows IC50 lower than 700 nM (ties excluded): COc1c(Br)cc(CC(=O)NCCCCCCCNc2c3c(nc4ccccc24)CCCC3)cc1Br [Compound 10f]
Response given: YES

Challenge: Determine whether this molecule shows IC50 lower than 700 nM (ties excluded): COc1ccc(CC(=O)NCCCCCCCNc2c3c(nc4ccccc24)CCCC3)cc1 [Compound 12b]
Response given: NO

---

So I've got a bunch of compounds here, and I need their IC50 values.
// note: answer is a bare numeric in nM

Challenge: Give recorded IC50 with Electric eel AChE (Electrophorus electricus) for the following compound: O=C(Cc1ccccc1Br)NCCCCCCCNc1c2c(nc3ccccc13)CCCC2 [Compound 12d]
Response given: 304

Challenge: Give recorded IC50 with Electric eel AChE (Electrophorus electricus) for the following compound: O=C(Cc1ccc(F)c(Br)c1)NCCCCCCCNc1c2c(nc3ccccc13)CCCC2 [Compound 12i]
Response given: 748

Challenge: Give recorded IC50 with Electric eel AChE (Electrophorus electricus) for the following compound: O=C(Cc1cccc(Br)c1)NCCCCCCCNc1c2c(nc3ccccc13)CCCC2 [Compound 12e]
Response given: 724

Challenge: Give recorded IC50 with Electric eel AChE (Electrophorus electricus) for the following compound: O=C(Cc1ccc(Br)cc1)NCCCCCCCNc1c2c(nc3ccccc13)CCCC2 [Compound 12f]
Response given: 597

Challenge: Give recorded IC50 with Electric eel AChE (Electrophorus electricus) for the following compound: O=C(Cc1cc(Br)ccc1F)NCCCCCCCNc1c2c(nc3ccccc13)CCCC2 [Compound 12j]
Response given: 182

Challenge: Give recorded IC50 with Electric eel AChE (Electrophorus electricus) for the following compound: COc1c(Br)cc(CC(=O)NCCNc2c3c(nc4ccccc24)CCCC3)cc1Br [Compound 10a]
Response given: 880

Challenge: Give recorded IC50 with Electric eel AChE (Electrophorus electricus) for the following compound: COc1ccc(CC(=O)NCCCCCCCNc2c3c(nc4ccccc24)CCCC3)cc1Br [Compound 12c]
Response given: 607

Challenge: Give recorded IC50 with Electric eel AChE (Electrophorus electricus) for the following compound: COc1c(Br)cc(CC(=O)NCCCCNc2c3c(nc4ccccc24)CCCC3)cc1Br [Compound 10c]
Response given: 1050

---

system.under.test: equine serum BChE (Equus caballus, UniProt P81908)
Sequence (P81908 whole entry): as above
procedure.details: biochemical
assay.setup: BChE from equine serum; mean ± SD from three separate experiments; read-out: IC50 eqBChE
Definition: the class of an entry is the range in low = under 100 nM, moderate = from 100 nM up to 200 nM, high = 200 nM and over that contains its IC50.

Challenge: Band for the recorded IC50 of COc1ccc(CC(=O)NCCCCCCCNc2c3c(nc4ccccc24)CCCC3)cc1 [Compound 12b] ?
Response given: high

Challenge: Band for the recorded IC50 of COc1c(Br)cc(CC(=O)NCCCCCCCNc2c3c(nc4ccccc24)CCCC3)cc1Br [Compound 10f] ?
Response given: low

Challenge: Band for the recorded IC50 of O=C(Cc1ccc(Br)cc1)NCCCCCCCNc1c2c(nc3ccccc13)CCCC2 [Compound 12f] ?
Response given: high

Challenge: Band for the recorded IC50 of COc1c(Br)cc(CC(=O)NCCCCCCCCCCNc2c3c(nc4ccccc24)CCCC3)cc1Br [Compound 10h] ?
Response given: high

Challenge: Band for the recorded IC50 of COc1c(Br)cc(CC(=O)NCCCCCCNc2c3c(nc4ccccc24)CCCC3)cc1Br [Compound 10e] ?
Response given: low

Challenge: Band for the recorded IC50 of O=C(Cc1cccc(Br)c1)NCCCCCCCNc1c2c(nc3ccccc13)CCCC2 [Compound 12e] ?
Response given: moderate

Challenge: Band for the recorded IC50 of O=C(Cc1cc(Cl)ccc1Br)NCCCCCCCNc1c2c(nc3ccccc13)CCCC2 [Compound 12k] ?
Response given: moderate

Challenge: Band for the recorded IC50 of COc1c(Br)cc(CC(=O)NCCNc2c3c(nc4ccccc24)CCCC3)cc1Br [Compound 10a] ?
Response given: high

Challenge: Band for the recorded IC50 of COc1c(Br)cc(CC(=O)NCCCCC[N+](C)(C)C)cc1Br [Compound 1, Pulmonarin B] ?
Response given: high

Challenge: Band for the recorded IC50 of O=C(Cc1ccccc1)NCCCCCCCNc1c2c(nc3ccccc13)CCCC2 [Compound 12l] ?
Response given: high

Challenge: Band for the recorded IC50 of O=C(Cc1cc(Br)ccc1Br)NCCCCCCCNc1c2c(nc3ccccc13)CCCC2 [Compound 12g] ?
Response given: low
